Origin of measurements: patent US20200087373A1

Biological target: T1, human GIP receptor (human, UniProt P48546 22-466)
T1 sequence (looked up): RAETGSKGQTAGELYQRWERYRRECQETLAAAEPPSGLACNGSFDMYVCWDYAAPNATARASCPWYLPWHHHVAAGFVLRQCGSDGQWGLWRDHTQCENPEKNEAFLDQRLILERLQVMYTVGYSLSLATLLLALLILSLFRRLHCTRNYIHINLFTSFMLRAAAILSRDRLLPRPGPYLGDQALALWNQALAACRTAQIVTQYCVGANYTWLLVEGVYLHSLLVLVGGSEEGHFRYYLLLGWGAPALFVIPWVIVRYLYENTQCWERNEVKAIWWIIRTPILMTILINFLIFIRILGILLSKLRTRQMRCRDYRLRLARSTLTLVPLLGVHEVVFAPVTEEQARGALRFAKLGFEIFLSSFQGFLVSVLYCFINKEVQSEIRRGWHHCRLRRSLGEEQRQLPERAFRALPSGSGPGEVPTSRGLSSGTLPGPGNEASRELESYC
Test: cell-based or functional assay
Ends that are not written are not given here. * marks the point of attachment. C16 diacid = O=C(O)CCCCCCCCCCCCCCC(=O)*; Palmitoyl = CCCCCCCCCCCCCCCC(=O)*; Lauroyl = CCCCCCCCCCCC(=O)*
cAMP antagonism, log (IC50) listing for selected binders.
Entry rule: numbers only, all in log M.

Here is how some binders turned out for cAMP antagonism, log (IC50).
EGTKISDYSIAMDKIHQQDFVNWLLAQK (C16-diacid (1,16-hexadecanedioic acid) on Lys 6 (GIP numbering); C-terminal amide) [AT297 [hGIP(3-30)NH2[F6K]-C16diacid/6]]; -6.2
EGTFISDYSIAMDK(Palmitoyl)IHQQDFVNWLLAQK-NH2 [AT105 [hGIP(3-30)NH2-C16/16]]; -7.6

Inquiry: # input binder: EGTFISDYSIAMDK(Lauroyl)IHQQDFVNWLLAQK-NH2 [AT154 [hGIP(3-30)NH2-C12/16]] ; wanted: its cAMP antagonism, log (IC50)
Reply text: -7.2

Inquiry: Same read-out for EGTFISDYSIAMDK(C16 diacid)IHQQDFVNWLLAQK-NH2 [AT370 [hGIP(3-30)NH2-C16diacid/16]] ?
Reply text: -7.6
